The values you see were collected from ChEMBL document CHEMBL5325412.

# protocol: Inhibition of MAPK p68 (unknown origin)
# Design: species or system Homo sapiens
experimental-endpoint: IC50
Please answer in the form of a number followed by its unit of measurement.

Consider the compound COc1ccc(Nc2nc(NCCc3ccccc3F)nc(Nc3ccc4ncccc4c3)n2)cc1OC and give its measured IC50. 2.1 µM

---

# protocol: Binding affinity to Peptoid-inspired conformationally constrained oligomer (unknown origin) assessed as dissociation constant
experimental-endpoint: pKd
Numbers only, as −log10 of the molar value.

Would you mind telling me what pKd value was observed for NC(=O)c1coc(CN(Cc2ccc3c(c2)OCO3)C(=O)c2coc(CN(Cc3ccc4c(c3)OCO4)C(=O)c3ncc(CCl)o3)n2)n1 ? 7.52
